Values compiled from patent US20090075314A1.

- Assayed target: T1, human gastrin/CCK-B receptor (human, UniProt P32239 1-447)
- T1 construct: Permanently expressed with arrestin-GFP in HEK-293 cells (Clone A); also called gastrin receptor; homo sapiens cholecystokinin B receptor
- T1 sequence: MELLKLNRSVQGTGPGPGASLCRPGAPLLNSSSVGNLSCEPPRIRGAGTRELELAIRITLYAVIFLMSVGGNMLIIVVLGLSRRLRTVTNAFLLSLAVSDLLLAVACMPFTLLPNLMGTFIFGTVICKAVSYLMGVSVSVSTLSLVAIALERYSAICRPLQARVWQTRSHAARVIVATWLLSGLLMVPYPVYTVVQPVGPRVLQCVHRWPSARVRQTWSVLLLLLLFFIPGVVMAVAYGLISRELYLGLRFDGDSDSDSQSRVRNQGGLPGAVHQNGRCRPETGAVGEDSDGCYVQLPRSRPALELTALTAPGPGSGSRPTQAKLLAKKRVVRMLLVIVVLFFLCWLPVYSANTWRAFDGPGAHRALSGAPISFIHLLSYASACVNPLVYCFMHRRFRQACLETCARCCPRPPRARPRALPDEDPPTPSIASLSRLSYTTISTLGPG
- Assay summary: competitive displacement of [3H]CCK-8 from Clone A by hG17
No end group written: not given here.
Readout: pEC50
Field pEC50 (float): negative decimal logarithm of the concentration in molar.

Provide one value: measured pEC50 of QGPWLEEEEEAYGWMDF-NH2 (peptide, UniProt P01350 76-92, looked up, domain: gastrin-17; also called hGl 7) [synthetic human gastrin-17 peptide (hG17)]
7.55
